Target: T1, GRIP1_5, Q9Y3R0
T1 sequence (Q9Y3R0 568-668, limits assumed, looked up): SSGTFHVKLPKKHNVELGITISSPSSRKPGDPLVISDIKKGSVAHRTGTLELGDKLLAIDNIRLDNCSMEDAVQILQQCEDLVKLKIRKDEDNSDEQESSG
Assay: holdup assay
Design: key: below the threshold = too weak to quantify, mostly under pKd 3.1 to 4
Conditions: plain residues with an end cap or a label only (N-terminal biotin on a linker: ttds)
MEASUREMENT TYPE: pKd

• RHTTSTETAV [HPV30-E6, P36809] = below the threshold
• FHPLGADSQV [SLC2A1, P11166] = below the threshold
• PVRVCEETSL [OTULIN, Q96BN8] = 3.78
• VDFPPKESSL [ACVR2A, P27037] = below the threshold
• EMDRRPATVV [PLCB4, Q15147] = below the threshold
• PRVKPQRSKV [PPP1R13L, Q8WUF5] = 3.65
• KKYVDAETSL [SLC4A7, Q9Y6M7] = 3.53
• DKDPHSETAL [TMIGD1, Q6UXZ0] = below the threshold
• RLQRRRETQV [HPV18-E6, P06463] = below the threshold
